assay-method-text: thermal stability
Type: physicochemical
condition-label: water/ethanol 1:3, 70 °C, 5 mM solution in water/ethanol 1:3 v/v, read-out: Residual amounts (%) after 100 hours
reported-endpoint: remaining at 100 h, 5000 µM

# compound, observed-result
data = [
    ("Cc1c(C)c2c(c(C)c1O)CCC(C)(CCCC(C)CCCC(C)CCCC(C)C)O2 (stereo not drawn) [α-Tocopherol, reference compound]", "30%"),
]

====

assay-method-text: pH stability
Type: physicochemical
condition-label: phosphate buffer/ethanol 5:1, pH 7, pH 7.0 (100 mM phosphate buffer), 5.5 mM, buffer/ethanol 5:1 v/v, read-out: Residual amounts (%) after 100 hours
reported-endpoint: remaining at 100 h, 5500 µM

# molecule, observed-result
rows = [
    ("Cc1c(C)c2c(c(C)c1O)CCC(C)(CCO[C@H]1O[C@H](CO)[C@@H](O)[C@H](O)[C@H]1O)O2 (stereo partly shown)", "24%"),
    ("Cc1c(C)c2c(c(C)c1O)CCC(C)(CCO)O2 (racemic) [formula (6), reference compound]", "19%"),
    ("Cc1c(C)c2c(c(C)c1O)CCC(C)(CO)O2 (racemic) [formula (3), reference compound]", "29%"),
    ("Cc1c(C)c2c(c(C)c1O)CCC(C)(CO[C@H]1O[C@H](CO)[C@@H](O)[C@H](O)[C@H]1O)O2 (stereo partly shown)", "41%"),
    ("Cc1c(C)c2c(c(C)c1O)CCC(C)(C(=O)O)O2 (stereo not shown) [Trolox, reference compound]", "35%"),
    ("Cc1c(C)c2c(c(C)c1O)CCC(C)(CCO[C@H]1O[C@H](CO)[C@@H](O[C@H]3O[C@H](CO)[C@@H](O)[C@H](O)[C@H]3O)[C@H](O)[C@H]1O)O2 (stereo partly shown)", "16%"),
    ("Cc1c(C)c2c(c(C)c1O)CCC(C)(CO[C@H]1O[C@H](CO)[C@@H](O[C@H]3O[C@H](CO)[C@@H](O)[C@H](O)[C@H]3O)[C@H](O)[C@H]1O)O2 (stereo partly shown)", "40%"),
]

====

assay-method-text: pH stability
Type: physicochemical
condition-label: acetate buffer/ethanol 5:1, pH 5.5, pH 5.5 (100 mM acetate buffer), 5.5 mM, buffer/ethanol 5:1 v/v, read-out: Residual amounts (%) after 100 hours

# compound, remaining at 100 h, 5500 µM (%)
records = [
    ("Cc1c(C)c2c(c(C)c1O)CCC(C)(CCO[C@H]1O[C@H](CO)[C@@H](O[C@H]3O[C@H](CO)[C@@H](O)[C@H](O)[C@H]3O)[C@H](O)[C@H]1O)O2 (stereo partly shown) [formula (8)]", 57),
    ("Cc1c(C)c2c(c(C)c1O)CCC(C)(CCO[C@H]1O[C@H](CO)[C@@H](O)[C@H](O)[C@H]1O)O2 (stereo partly shown) [formula (7)]", 69),
    ("Cc1c(C)c2c(c(C)c1O)CCC(C)(CCO)O2 (racemic) [formula (6), reference compound]", 63),
    ("Cc1c(C)c2c(c(C)c1O)CCC(C)(CO[C@H]1O[C@H](CO)[C@@H](O[C@H]3O[C@H](CO)[C@@H](O)[C@H](O)[C@H]3O)[C@H](O)[C@H]1O)O2 (stereo partly shown) [formula (5)]", 84),
    ("Cc1c(C)c2c(c(C)c1O)CCC(C)(CO)O2 (racemic) [formula (3), reference compound]", 73),
    ("Cc1c(C)c2c(c(C)c1O)CCC(C)(CO[C@H]1O[C@H](CO)[C@@H](O)[C@H](O)[C@H]1O)O2 (stereo partly shown) [formula (4)]", 91),
    ("Cc1c(C)c2c(c(C)c1O)CCC(C)(C(=O)O)O2 (stereo not shown) [Trolox, reference compound]", 75),
]

Source of measurements: patent US5478812A
